Source listed as PubChem BioAssay (NCI).

- System: UO-31 renal
- RUN DESCRIPTION: NCI-60 one-dose screen, 48 h (100 = growth as untreated, 0 = no growth, -100 = all killed)
- CONDITION DESCRIPTION: 10 µM unless noted
- Procedure: Growth inhibition of the UO-31 human tumor cell line is measured as a screen for anti-cancer activity. Cells are grown in 96 well plates and exposed to the test compound for 48 hours. Compounds are tested at a single concentration, which is 10^-5 M for most compounds. The reported endpoint is percent growth (GI% or GIPRCNT), where numbers from 0 - 100% represent growth inhibition, and numbers from -100% - 0 represent cell death. For example, a value of 40 represents 60% growth inhibition. […]
Compounds without any hit were thinned out: in the full panel of roughly 83,000, 20% have a hit.
Output schema: class label derived from growth. Mapping: low: < -60%; medium: ≥ -60% and < 50%; high: ≥ 50%

Incoming: Which growth category applies to CC12CC=CCC1CCC1C2CCC2(C)C(c3ccc(=O)oc3)CCC12O (centres undefined) here?
Outgoing: low

Incoming: Another: Clc1cccc(N2COOC3(OOC2)C2CC4CC(C2)CC3C4)c1
Outgoing: low

Incoming: Another: c1ccc(COc2ccc3[nH]cc(CCN(Cc4ccccc4)Cc4ccccc4)c3c2)cc1
Outgoing: high
